This section presents compounds with their documented Ki values.
# study-target: human NEP (Homo sapiens, UniProt P08473)
# Construct: 1182-ZN
# Sequence (P08473 whole entry): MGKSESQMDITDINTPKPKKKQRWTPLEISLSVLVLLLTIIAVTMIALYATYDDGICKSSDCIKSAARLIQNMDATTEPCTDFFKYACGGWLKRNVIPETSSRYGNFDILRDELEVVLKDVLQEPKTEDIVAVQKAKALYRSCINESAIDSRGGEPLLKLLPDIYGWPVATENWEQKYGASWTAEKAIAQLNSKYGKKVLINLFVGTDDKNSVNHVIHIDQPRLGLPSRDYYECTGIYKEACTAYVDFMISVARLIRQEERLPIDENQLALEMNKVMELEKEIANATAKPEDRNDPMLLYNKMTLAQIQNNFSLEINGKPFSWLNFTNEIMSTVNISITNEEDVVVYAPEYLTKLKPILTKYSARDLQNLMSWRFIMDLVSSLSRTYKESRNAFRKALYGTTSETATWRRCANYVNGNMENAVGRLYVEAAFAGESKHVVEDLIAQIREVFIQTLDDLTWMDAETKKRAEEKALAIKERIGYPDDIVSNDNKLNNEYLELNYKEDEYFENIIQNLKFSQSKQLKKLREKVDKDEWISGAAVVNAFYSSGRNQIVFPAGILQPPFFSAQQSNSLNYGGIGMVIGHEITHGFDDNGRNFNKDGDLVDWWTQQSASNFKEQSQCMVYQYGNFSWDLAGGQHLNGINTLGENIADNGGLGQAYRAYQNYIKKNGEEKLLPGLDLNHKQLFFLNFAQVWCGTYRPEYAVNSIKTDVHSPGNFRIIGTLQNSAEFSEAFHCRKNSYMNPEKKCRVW
# procedure-text: In vitro enzyme inhibition assay, inhibitor potency at human NEP
# measurement-context: pKi values at human NEP; recombinant human NEP, fluorogenic peptide substrate 10 μM, 37° C.

Example entries and their recorded answers appear below.
- record-smiles: "O=C(N[C@H](Cc1ccccc1)[C@@H](O)C(=O)O)c1cc(F)c2[nH]nnc2c1"
  Ki: "12.6 to 100 nM"
- record-smiles: "O=C(N[C@H](Cc1ccccc1)[C@@H](O)C(=O)O)c1cc(-c2ccccc2C(=O)O)ccn1"
  Ki: "1.26 to 10 nM"
- record-smiles: "CCCc1nc2c(C)cc(C(=O)N[C@H](Cc3ccccc3)[C@@H](O)C(=O)O)cc2n1CC(=O)O"
  Ki: "12.6 to 100 nM"

Missing value: Ki, human NEP (Homo sapiens, UniProt P08473), entry `O=C(N[C@H](Cc1ccccc1Cl)[C@@H](O)C(=O)O)c1cnc(O)cn1` . Fill in?
12.6 to 100 nM

Missing value: Ki, human NEP (Homo sapiens, UniProt P08473), entry `O=C(N[C@H](Cc1ccccc1Cl)[C@@H](O)C(=O)O)c1cnc(-c2ccccc2C(=O)O)c(F)c1` . Fill in?
1.26 to 10 nM

Missing value: Ki, human NEP (Homo sapiens, UniProt P08473), entry `O=C(N[C@H](Cc1ccccc1)[C@@H](O)C(=O)O)c1ccnc(-c2ccccc2C(=O)O)c1` . Fill in?
1.26 to 10 nM

Missing value: Ki, human NEP (Homo sapiens, UniProt P08473), entry `O=C(O)C[C@@H](Cc1ccccc1Cl)NC(=O)c1cc(-c2ccccc2C(=O)O)ccn1` . Fill in?
1.26 to 10 nM

Missing value: Ki, human NEP (Homo sapiens, UniProt P08473), entry `O=C(N[C@H](Cc1ccccc1C(F)(F)F)[C@@H](O)C(=O)O)c1cnc2[nH]nnc2c1` . Fill in?
1.26 to 10 nM

###

This section presents compounds with their documented Ki values.
# study-target: human NEP (Homo sapiens)
# Construct: 1182-ZN
# procedure-text: In vitro enzyme inhibition assay, inhibitor potency at human NEP
# measurement-context: pKi values at human NEP; recombinant human NEP, fluorogenic peptide substrate 10 μM, 37° C.
# Description: The inhibitory activities of compounds at human and rat neprilysin (EC 3.4.24.11; NEP) and human angiotensin converting enzyme (ACE) were determined using in vitro assays as described below. Recombinant human NEP and recombinant human ACE were obtained commercially (R&D Systems, Minneapolis, Minn., catalog numbers 1182-ZN and 929-ZN, respectively). […] Plates were read on a fluorometer with excitation and emission wavelengths set to 320 nm and 405 nm, respectively. […]

Example entries and their recorded answers appear below.
- record-smiles: "O=C(O)C[C@@H](Cc1ccccc1Cl)NC(=O)c1ccc2nn[nH]c2c1"
  Ki: "12.6 to 100 nM"
- record-smiles: "O=C(O)C[C@@H](Cc1ccccc1Cl)NC(=O)c1cnc2nn[nH]c2c1"
  Ki: "12.6 to 100 nM"
- record-smiles: "O=C(N[C@H](Cc1ccccc1)[C@@H](O)C(=O)O)c1cnc(-c2ccccc2C(=O)O)cn1"
  Ki: "12.6 to 100 nM"

Next item in the queue.
Missing value: Ki, human NEP (Homo sapiens), entry `O=C(N[C@H](Cc1ccccc1Cl)[C@H](O)C(=O)O)c1cc(F)c2nn[nH]c2c1` . Fill in?
1.26 to 10 nM

Values compiled from patent US9771337B2.
